Taken from the supplement of paper PMC10567573.

B1: CCDC89 (parent)
chain: LNAELEEKMMQEAEKLKAQGEYSR

variants of: B1; assay: protein stability index of a GFP-peptide fusion (GPS, HEK-293T) (PSI 1-6); higher = more stable; conditions: c terminus: a fixed tail appended;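 also: lentivirally expressed fusions sorted by FACS into six bins by GFP to DsRed ratio, PSI derived from sequencing read proportions per bin multiplied by bin number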
Kindly return yes if reported protein stability index is no lower than 5; return no if it is lower.

E6M
no

Is the recorded value of protein stability index equal to or greater than 5 for this variant? E4H
no

Please do the same for Q19W as well.
no

Then this variant: E6G
yes

Follow-up item: N2W
no

One more variant: K8N
no

Subsequent entry: E4F
no

How about this variant: Q19K
yes

Continue with E6F
no
